# target_under_test: human GLP-1 receptor (human, UniProt P43220 24-463)
# experimental_protocol: cell-based or functional assay
Numbered stars: 1 amine (or outer) side, 2 acyl side, 3 side chain; on linkers, the order of the positions; unused ones are H or OH. Square brackets hold non-standard residues; d marks the D form. Side chains are listed from the residue outwards. * marks the point of attachment. C18 diacid = O=C(O)CCCCCCCCCCCCCCCCC(=O)*; γGlu = O=C(O)[C@H](CCC(=O)[*:2])N[*:1]; Chem. 28 = not defined here; AEEA = NCCOCCOCC(=O)O; Aib = CC(C)(N)C(=O)O
I'd appreciate it if you could supply hGLP-1R Potency, no HSA, EC50 [pM] values for the items below.
Number in pM, nothing else.

[in] Tell me measured hGLP-1R Potency, no HSA, EC50 [pM] for Compound 27 (reading uncertain) peptide: Y[Aib]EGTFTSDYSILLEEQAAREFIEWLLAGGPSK(Chem. 28)GEASELSTAQLGRLSAELHRLATLPRTETGSGSP-NH2 please.
[out] 26.2

[in] Look up and report measured hGLP-1R Potency, no HSA, EC50 [pM] for this entry: Compound 100 (reading uncertain) peptide: H[Aib]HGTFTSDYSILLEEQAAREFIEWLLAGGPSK(Chem. 28)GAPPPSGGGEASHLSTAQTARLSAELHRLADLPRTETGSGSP-NH2
[out] 5.85

[in] Determine from records and report hGLP-1R Potency, no HSA, EC50 [pM] for Compound 82 (peptide) peptide: H[Aib]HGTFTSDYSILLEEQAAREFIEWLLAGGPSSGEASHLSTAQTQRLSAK([AEEA-AEEA-γGlu-C18 diacid])LHRLATLPRTETGSGSP-NH2
[out] 3.45

From: patent US20260174875A1
